For each record, write down the corresponding expression of hrpA, GFP intensity (Mean Fluorescence Intensity), Ech3937 carrying phrpA.
- System: hrpA promoter
- assayRemarks: hrpA promoter activity, GFP reporter plasmid phrpA, flow cytometry (FACS)
- Assay type: cell-based, Dickeya dadantii 3937 (Ech3937)
- testContext: MM + 0.1 mM compound, 12 h (Table 9)
Please respond with just the number, no unit label.

Exercise: Which expression of hrpA, GFP intensity (Mean Fluorescence Intensity), Ech3937 carrying phrpA is listed for O=C(O)[C@@H]1C[C@H]1c1ccccc1 (relative stereo) ?
Solution: 67.0

Exercise: Would you mind telling me what expression of hrpA, GFP intensity (Mean Fluorescence Intensity), Ech3937 carrying phrpA value was observed for COC(=O)/C=C/c1ccccc1 [Methyl trans-cinnamate] ?
Solution: 135.8

Exercise: What measured expression of hrpA, GFP intensity (Mean Fluorescence Intensity), Ech3937 carrying phrpA goes with OCC=Cc1ccccc1 [Cinnamyl alcohol] ?
Solution: 27.8

Exercise: expression of hrpA, GFP intensity (Mean Fluorescence Intensity), Ech3937 carrying phrpA for O=C(O)COc1ccccc1 [Phenoxyacetic acid] ?
Solution: 222.7

Exercise: I have this compound here, O=C(O)C=Cc1ccccc1Cl [2-Chlorocinnamic acid] , and I need its recorded expression of hrpA, GFP intensity (Mean Fluorescence Intensity), Ech3937 carrying phrpA.
Solution: 166.2

Exercise: // query expression of hrpA, GFP intensity (Mean Fluorescence Intensity), Ech3937 carrying phrpA value for entry Cc1ccccc1C=CC(=O)O [2-Methylcinnamic acid]
Solution: 157.2

Exercise: Look at this compound and give its reported expression of hrpA, GFP intensity (Mean Fluorescence Intensity), Ech3937 carrying phrpA. O=C(O)/C=C/c1cccnc1 [trans-3-(3-Pyridyl)acrylic acid]
Solution: 184.9

Exercise: What measured expression of hrpA, GFP intensity (Mean Fluorescence Intensity), Ech3937 carrying phrpA goes with O=C(O)/C=C/c1c[nH]c2ccccc12 [trans-3-indoleacrylic acid] ?
Solution: 23.9

Exercise: // lookup expression of hrpA, GFP intensity (Mean Fluorescence Intensity), Ech3937 carrying phrpA for O=C(O)/C=C/c1ccccc1O [OCA, o-coumaric acid]
Solution: 115.5

Exercise: I would be grateful if you could share the reported expression of hrpA, GFP intensity (Mean Fluorescence Intensity), Ech3937 carrying phrpA for O=C(O)/C=C/c1cccc(O)c1 [m-Coumaric acid] .
Solution: 133.0

Exercise: What does the data say about its expression of hrpA, GFP intensity (Mean Fluorescence Intensity), Ech3937 carrying phrpA? Entry: O=C(O)CCc1ccccc1 [Hydrocinnamic acid]
Solution: 200.3

Exercise: Quick check: expression of hrpA, GFP intensity (Mean Fluorescence Intensity), Ech3937 carrying phrpA of O=C(O)/C=C/c1ccccc1 [TCA, t-cinnamic acid] ?
Solution: 133.9

Exercise: # query: expression of hrpA, GFP intensity (Mean Fluorescence Intensity), Ech3937 carrying phrpA of entry O=C(O)/C=C/c1ccc(O)cc1 [PCA, p-coumaric acid]
Solution: 10.2

----------
- Tested on: hrpA promoter
- assayRemarks: hrpA promoter activity, GFP reporter plasmid phrpA, flow cytometry (FACS)
- Format: cell-based, Dickeya dadantii 3937 (Ech3937)
- testContext: MM + 0.1 mM compound, 24 h (Table 9)
parameterMeasured: expression of hrpA, GFP intensity (Mean Fluorescence Intensity), Ech3937 carrying phrpA
Note: the reply should be a number with no unit written.

Exercise: Name the recorded expression of hrpA, GFP intensity (Mean Fluorescence Intensity), Ech3937 carrying phrpA for O=C(O)COc1ccccc1 [Phenoxyacetic acid] .
Solution: 205.7

Exercise: For O=C(O)/C=C/c1ccc(O)cc1 [PCA, p-coumaric acid] , what is its reported expression of hrpA, GFP intensity (Mean Fluorescence Intensity), Ech3937 carrying phrpA?
Solution: 11.4

Exercise: Quick one: expression of hrpA, GFP intensity (Mean Fluorescence Intensity), Ech3937 carrying phrpA for O=C(O)/C=C/c1ccccc1O [OCA, o-coumaric acid] ?
Solution: 225.8

Exercise: Requested field: expression of hrpA, GFP intensity (Mean Fluorescence Intensity), Ech3937 carrying phrpA. Item: O=C(O)C=Cc1ccccc1Cl [2-Chlorocinnamic acid]
Solution: 319.8

Exercise: expression of hrpA, GFP intensity (Mean Fluorescence Intensity), Ech3937 carrying phrpA lookup needed for Cc1ccccc1C=CC(=O)O [2-Methylcinnamic acid] , thanks.
Solution: 342.5

Exercise: Entry O=C(O)CCc1ccccc1 [Hydrocinnamic acid] has what expression of hrpA, GFP intensity (Mean Fluorescence Intensity), Ech3937 carrying phrpA?
Solution: 213.5

Exercise: What measured expression of hrpA, GFP intensity (Mean Fluorescence Intensity), Ech3937 carrying phrpA goes with O=C(O)/C=C/c1c[nH]c2ccccc12 [trans-3-indoleacrylic acid] ?
Solution: 121.0

Exercise: Please give the measured expression of hrpA, GFP intensity (Mean Fluorescence Intensity), Ech3937 carrying phrpA for this compound: O=C(O)[C@@H]1C[C@H]1c1ccccc1 (relative stereo)
Solution: 84.0

Exercise: Need expression of hrpA, GFP intensity (Mean Fluorescence Intensity), Ech3937 carrying phrpA, item O=C(O)/C=C/c1cccnc1 [trans-3-(3-Pyridyl)acrylic acid]
Solution: 204.0

Exercise: Entry under review: OCC=Cc1ccccc1 [Cinnamyl alcohol] . Reported expression of hrpA, GFP intensity (Mean Fluorescence Intensity), Ech3937 carrying phrpA?
Solution: 53.8

Exercise: Look at this compound and give its reported expression of hrpA, GFP intensity (Mean Fluorescence Intensity), Ech3937 carrying phrpA. O=C(O)/C=C/c1ccccc1 [TCA, t-cinnamic acid]
Solution: 203.7

Exercise: Quick check: expression of hrpA, GFP intensity (Mean Fluorescence Intensity), Ech3937 carrying phrpA of O=C(O)/C=C/c1cccc(O)c1 [m-Coumaric acid] ?
Solution: 203.3

Exercise: Report expression of hrpA, GFP intensity (Mean Fluorescence Intensity), Ech3937 carrying phrpA for COC(=O)/C=C/c1ccccc1 [Methyl trans-cinnamate] please.
Solution: 219.2
